measurement_target: metabotropic glutamate receptor 5 (Rattus norvegicus, UniProt P31424)
Sequence (P31424 21-1203): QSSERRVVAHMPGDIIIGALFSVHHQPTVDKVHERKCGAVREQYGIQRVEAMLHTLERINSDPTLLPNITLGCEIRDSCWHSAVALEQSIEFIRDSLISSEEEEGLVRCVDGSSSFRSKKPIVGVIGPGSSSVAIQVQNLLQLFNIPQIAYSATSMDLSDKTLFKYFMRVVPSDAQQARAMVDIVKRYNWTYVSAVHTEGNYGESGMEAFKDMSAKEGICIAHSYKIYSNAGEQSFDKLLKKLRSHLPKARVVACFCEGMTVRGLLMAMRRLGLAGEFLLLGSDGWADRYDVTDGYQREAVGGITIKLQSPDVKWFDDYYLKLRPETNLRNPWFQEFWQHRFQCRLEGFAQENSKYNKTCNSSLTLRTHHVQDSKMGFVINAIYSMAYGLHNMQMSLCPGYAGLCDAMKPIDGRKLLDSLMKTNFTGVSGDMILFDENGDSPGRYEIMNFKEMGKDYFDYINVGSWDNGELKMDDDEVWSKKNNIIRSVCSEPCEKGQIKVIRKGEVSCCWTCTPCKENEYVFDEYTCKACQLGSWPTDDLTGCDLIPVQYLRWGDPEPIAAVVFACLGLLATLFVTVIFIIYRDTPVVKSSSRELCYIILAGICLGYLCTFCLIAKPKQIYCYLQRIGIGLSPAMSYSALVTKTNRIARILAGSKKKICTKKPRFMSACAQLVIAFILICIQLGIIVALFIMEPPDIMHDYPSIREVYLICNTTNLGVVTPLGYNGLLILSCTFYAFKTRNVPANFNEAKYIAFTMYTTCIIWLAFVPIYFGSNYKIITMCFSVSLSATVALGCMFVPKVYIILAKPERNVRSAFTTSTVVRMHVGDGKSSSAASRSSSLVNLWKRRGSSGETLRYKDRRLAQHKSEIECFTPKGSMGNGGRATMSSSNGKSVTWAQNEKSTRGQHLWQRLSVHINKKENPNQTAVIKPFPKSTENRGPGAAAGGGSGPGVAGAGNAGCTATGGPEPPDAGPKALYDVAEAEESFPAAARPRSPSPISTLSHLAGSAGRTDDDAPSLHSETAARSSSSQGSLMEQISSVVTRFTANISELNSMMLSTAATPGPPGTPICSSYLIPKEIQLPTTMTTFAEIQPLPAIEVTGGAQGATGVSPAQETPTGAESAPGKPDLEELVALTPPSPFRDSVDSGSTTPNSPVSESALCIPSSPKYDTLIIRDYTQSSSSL
assay_name: FLIPR Calcium 3 fluorescence-based functional assay of intracellular calcium, mGluR5 antagonist activity
measurement_conditions: inhibition of glutamate (EC90, ~50 uM) stimulated calcium levels, mGluR5 HEK-293 cells; read-out: mGluR5 FLIPR MP Antagonist DR IC50
metric_name: IC50 (µM)

Solved cases below.
molecule | metric_name | measured_value
O=C(c1ccc(F)c(C#Cc2ccccn2)c1)N1CCc2c(Cl)cccc2C1 | IC50 | 0.04
COc1ccc(C(=O)N2CCc3ncc(Br)cc3C2)cc1C#Cc1ccccn1 | IC50 | 0.051
COc1ccc(C(=O)N2Cc3cccnc3C2)cc1C#Cc1ccccn1 | IC50 | 0.008
CCOc1ccc(C(=O)N2CCc3ccc(Cl)cc3C2)cc1C#Cc1ccccn1 | IC50 | 0.042
Cc1ccc(C(=O)N2CCc3nc[nH]c3C2)cc1C#Cc1ccccn1 | IC50 | 0.002

[A] COc1ccc(C(=O)N2CCc3ccccc3C2c2cccs2)cc1C#Cc1ccccn1 (stereo not drawn)
[B] COc1ccc(C(=O)N2CCc3ccc(C#N)cc3C2)cc1C#Cc1ccccn1
[C] COc1ccc(C(=O)N2CCc3ccc(Cl)cc3C2)cc1C#Cc1ccccn1
Falling order of IC50, please. Output the labels ranked as instructed.
A, B, C

[1] O=C(c1ccc(F)c(C#Cc2ccccn2)c1)N1CCc2ccc(Cl)cc2C1
[2] COc1ccc(C(=O)N2Cc3ccc([N+](=O)[O-])cc3C2)cc1C#Cc1ccccn1
[3] COc1ccc(C(=O)N2CCc3[nH]cnc3C2)cc1C#Cc1ccccn1
[4] COc1ccc(C(=O)N2Cc3ccccc3C2)cc1C#Cc1ccccn1
Falling order of IC50, please. Output the labels ranked as instructed.
2, 1, 3, 4
(2: 0.061 µM, 1: 0.029 µM, 3: 0.018 µM, 4: 0.01 µM)

[A] O=C(c1ccc(C(F)(F)F)c(C#Cc2ccccn2)c1)N1CCc2ccc(Cl)cc2C1
[B] COc1ccc(C(=O)N2CCc3oc(C)nc3C2)cc1C#Cc1ccccn1
[C] O=C(c1ccc(Cl)c(C#Cc2ccccn2)c1)N1CCc2[nH]ncc2C1
Exam item: list the entries in increasing order of IC50. Output the labels ranked as instructed.
C, B, A

[P] O=C(c1ccc(Cl)c(C#Cc2ccccn2)c1)N1CCc2ccccc2C1
[Q] COc1ccc(C(=O)N2CCc3ccccc3C2)cc1C#Cc1ccccn1
Higher IC50: P or Q ? Record your answer as the label of the chosen record.
Q
(Q: 0.024 µM, P: 0.013 µM)

* * *

measurement_target: metabotropic glutamate receptor 5 (Rattus norvegicus)
assay_name: FLIPR Calcium 3 fluorescence-based functional assay of intracellular calcium, mGluR5 antagonist activity
measurement_conditions: inhibition of glutamate (EC90, ~50 uM) stimulated calcium levels, mGluR5 HEK-293 cells; read-out: mGluR5 FLIPR MP Antagonist DR IC50
metric_name: IC50 (nM)

Solved cases below.
molecule | measured_value
COc1ccc(C(=O)N2CCc3cccc(OC)c3C2)cc1C#Cc1ccccn1 [Example 21] | 34
COc1ccc(C(=O)N2Cc3ccccc3C(S(=O)(=O)N3CCS(=O)(=O)CC3)C2)cc1C#Cc1ccccn1 (stereo not drawn) [Example 25] | 97
O=C(c1ccc(Cl)c(C#Cc2ccccn2)c1)N1Cc2ccccc2C1 [Example 60] | 6
O=C(c1ccc(Cl)c(C#Cc2ccccn2)c1)N1CCc2cccnc2C1 [Example 62] | 9
O=C(c1ccc(Cl)c(C#Cc2ccccn2)c1)N1CCc2c(F)ccc(F)c2C1 [Example 63] | 14

[1] O=C(c1ccc(C(F)(F)F)c(C#Cc2ccccn2)c1)N1CCc2ccccc2C1 [Example 93]
[2] COc1ccc(C(=O)N2CCc3[nH]ncc3C2)cc1C#Cc1ccccn1 [Example 53]
[3] COc1ccc(C(=O)N2Cc3ccc(Br)cc3C2)cc1C#Cc1ccccn1 [Example 33]
Falling order of IC50, please. Output the labels ranked as instructed.
3, 1, 2

* * *

measurement_target: UniProtKB P31424
assay_name: FLIPR Calcium 3 fluorescence-based functional assay of intracellular calcium, mGluR5 antagonist activity
measurement_conditions: inhibition of glutamate (EC90, ~50 uM) stimulated calcium levels, mGluR5 HEK-293 cells; read-out: mGluR5 FLIPR MP Antagonist DR IC50
metric_name: IC50 (nM)

compound | measured_value
COc1ccc(C(=O)N2CCc3c(OC)ccc(OC)c3C2)cc1C#Cc1ccccn1 [Example 19] | 30

[I] O=C(c1ccc(F)c(C#Cc2ccccn2)c1)N1Cc2ccccc2C1 [Example 74]
[II] COc1ccc(C(=O)N2CCc3cccc(C(F)(F)F)c3C2)cc1C#Cc1ccccn1 [Example 5]
# min-compare on IC50 between I and II Record your answer as the label of the chosen record.
I
(I: 62 nM, II: 151 nM)

* * *

measurement_target: metabotropic glutamate receptor 5 (Rattus norvegicus, UniProt P31424)
assay_name: FLIPR Calcium 3 fluorescence-based functional assay of intracellular calcium, mGluR5 antagonist activity
measurement_conditions: inhibition of glutamate (EC90, ~50 uM) stimulated calcium levels, mGluR5 HEK-293 cells; read-out: mGluR5 FLIPR MP Antagonist DR IC50
metric_name: IC50 (nM)

Solved cases below.
compound | measurement_target | measured_value
COc1ccc(C(=O)N2CCc3ncc(C(F)(F)F)cc3C2)cc1C#Cc1ccccn1 [Example 52] | metabotropic glutamate receptor 5 (Rattus norvegicus, UniProt P31424) | 49
COc1ccc(C(=O)N2CCc3ccccc3CC2)cc1C#Cc1ccccn1 [Example 57] | metabotropic glutamate receptor 5 (Rattus norvegicus, UniProt P31424) | 17
Cc1ccc(C(=O)N2CCc3c(Cl)cccc3C2)cc1C#Cc1ccccn1 [Example 84] | metabotropic glutamate receptor 5 (Rattus norvegicus, UniProt P31424) | 48

[a] Cc1ccc(C(=O)N2Cc3ccccc3C2)cc1C#Cc1ccccn1 [Example 81]
[b] COc1ccc(C(=O)N2CCc3c(Cl)cccc3C2)cc1C#Cc1ccccn1 [Example 10]
[c] COc1ccc(C(=O)N2CCOc3ccccc3C2)cc1C#Cc1ccccn1 [Example 55]
[d] COc1ccc(C(=O)N2CCc3c(cccc3C(F)(F)F)C2)cc1C#Cc1ccccn1 [Example 4]
Exam item: list the entries in increasing order of IC50. Output the labels ranked as instructed.
c, a, b, d

Origin of the recorded values: patent US20100273772A1
